assay: NCI Yeast Anticancer Drug Screen. Data for the rad50 strain (AID 155);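 note: 0% = growth of vehicle-only cultures of the same strain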; conditions: S. cerevisiae rad50 strain growth inhibition; at 50.0 µM; stronger effect = higher value
About 79,000 compounds went through this panel and 15% of them were active in at least one assay; those are over-represented in the sample as a whole.

compound: C=C(C(=O)O)C(=O)O
unit.spec: %
growth inhibition: -14.4

compound: CC(=O)Nc1ccc[n+](C)c1
unit.spec: %
growth inhibition: 0.65

compound: CC1=C(C)CC2C(=O)c3c(O)ccc(O)c3C(=O)C2C1 (configuration not stated)
unit.spec: %
growth inhibition: 28.9

compound: C[S+](C)c1ccc(Cl)cc1
unit.spec: %
growth inhibition: -1.45

compound: COc1c(NC(=O)Nc2ccc(SC)cc2)cccc1[N+](=O)[O-]
unit.spec: %
growth inhibition: 2.35

compound: Cc1cc(C)c(C(=O)CC(C)C)c(C)c1
unit.spec: %
growth inhibition: -8.15

compound: CC(=O)Nc1ccc(N=Nc2cccc(C)c2)cc1C
unit.spec: %
growth inhibition: -1.6

###

test: NCI Yeast Anticancer Drug Screen. Data for the rad50 strain (AID 155);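 note: 0% = growth of vehicle-only cultures of the same strain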; details: S. cerevisiae rad50 strain growth inhibition; at 50.0 µM; stronger effect = higher value
This is part of a sample that, as a whole, favours compounds with a hit. Of some 79,000 tested, about 15% had one in any assay.

compound: C#CCOc1ccc(C(F)(F)F)cc1
growth inhibition (%): -8.1

compound: CN(C)CCCCC(C#N)(c1ccccc1)c1ccccc1
growth inhibition (%): 16.3

compound: CC1(C)CCc2cc3c(cc2O1)OC(C)(C)CC3=O
growth inhibition (%): 9.05

compound: CCOC(=O)NC1OC(C(N)=O)C(O)C(O)C1O (centres undefined)
growth inhibition (%): 2.25

compound: CCOC(=O)NN(C(=O)OCC)C(C)(C)C(C)=O
growth inhibition (%): 7.3

compound: COC(=O)n1oc2c(Br)cc(Br)cc2c1=O
growth inhibition (%): -4.15

compound: Nc1c(S(=O)(=O)O)cc(Nc2cccc(S(=O)(=O)/C=C/S(=O)(=O)O)c2)c2c1C(=O)c1ccccc1C2=O
growth inhibition (%): 8.4

compound: C(=C/c1ccc(-c2ccccc2)cc1)/c1ccc(-c2ccccc2)cc1
growth inhibition (%): -4.5

compound: Cc1cccc(C(=O)O)c1N
growth inhibition (%): 9.7

compound: O=C(O)c1cncc(-c2ccccc2)c1
growth inhibition (%): 38.2

compound: COc1ccccc1NC(=O)NCCN1CCCC1
growth inhibition (%): -2.15

compound: CC1(C)C2CCC3CC(CCC#N)CCC3C21C#N (centres undefined)
growth inhibition (%): -32.2

compound: CCOc1ccc(C(=O)CCC(=O)Nc2ccc(Br)cc2)cc1
growth inhibition (%): 13.1

compound: CC1CC[N+]2(C)CCCC12 (centres undefined)
growth inhibition (%): 1.1

compound: Cc1ccc(S(=O)(=O)OCC(c2ccc(Cl)cc2)c2ccccc2Cl)cc1 (centres undefined)
growth inhibition (%): 14.6

compound: N#Cc1c(N)nc([Se]CC(=O)c2ccc(Cl)cc2)c(C#N)c1-c1ccco1
growth inhibition (%): -7.45

compound: CCCCOB1OC(c2ccccc2)(c2ccccc2)c2ccccc2C(c2ccccc2)(c2ccccc2)O1
growth inhibition (%): 31.1

compound: CCCCn1c(CCC)nc([N+](=O)[O-])c1Sc1ncn[nH]1
growth inhibition (%): -4.15

compound: CC1(C)CNC[C@](C)(OCc2ccccc2)N1
growth inhibition (%): -24.4

compound: Cc1nn(C(=O)c2ccncc2)c2c1C(c1ccccc1[N+](=O)[O-])SC(N)=N2 (centres undefined)
growth inhibition (%): 21.4

compound: Nc1nc(=O)n(C2CCC(CO)O2)cc1F (centres undefined)
growth inhibition (%): 34.7

compound: Cc1ccc(/C=C/C(=O)C(C)(C)CN2CCCCC2)cc1
growth inhibition (%): 35.6

compound: CO[C@@H]1C[C@H]2[C@@H]3CC[C@H]([C@H](C)COC(C)=O)[C@@]3(C)CC[C@@H]2[C@@]2(C)CC[C@H]3C[C@]312
growth inhibition (%): -4.65

compound: Cc1ccc(S(=O)(=O)CC(O)(C(C)C)C(C)C)cc1
growth inhibition (%): -19

###

Experiment: NCI Yeast Anticancer Drug Screen. Data for the mec2-1 strain (AID 157)
Conditions: S. cerevisiae mec2-1 strain, at 50.0 µM, stronger effect = higher value
Protocol: Growth inhibition of yeast strains with defined genetic alterations is measured as a screen for potential anti-cancer activity. Selected strains with alterations in DNA damage repair or cell cycle control were exposed to compounds and growth inhibition was measured relative to vehicle treated controls. The strain used in this assay is mec2-1
Compounds without any hit were thinned out: in the full panel of roughly 79,000, 15% have a hit.
# growth inhibition listing for each entry below

molecule: O=C(c1ccccc1C(=O)N1CCCO1)N1CCCO1
unit.spec: %
growth inhibition: -8.3
--
molecule: CSC(C(OC(C)=O)C(OC(C)=O)C(OC(C)=O)C(COC(C)=O)OC(C)=O)n1cnc2c(=S)nc[nH]c21 (stereo unspecified)
unit.spec: %
growth inhibition: -12.4
--
molecule: CCOC(=O)/C(N=Nc1ccc(O)cc1)=C(\C)O
unit.spec: %
growth inhibition: 28.4
--
molecule: [N-]=[N+]=NC(=O)c1cccc2c1Cc1ccccc1-2
unit.spec: %
growth inhibition: 0.75
--
molecule: COc1cccc(Nc2nc(NS(=O)(=O)c3cc(C)c(Cl)cc3S)n[nH]2)c1
unit.spec: %
growth inhibition: -2.3
--
molecule: CCCC(=O)Nc1cc(C(=O)N2C[C@@H]3C[C@]34C2=CC(=O)c2[nH]cc(C)c24)n(COC)c1
unit.spec: %
growth inhibition: 10.5
--
molecule: O=C(c1ccccc1)C12CCCC(CC1)C2 (stereo unspecified)
unit.spec: %
growth inhibition: -19.9
--
molecule: CC1=CC(C)S(=O)(=O)C1 (stereo unspecified)
unit.spec: %
growth inhibition: -46.2
--
molecule: CC1COC(c2ccc(C(C)C)cc2)O1 (stereo unspecified)
unit.spec: %
growth inhibition: 0.35
--
molecule: Cc1ccc(C2SC(N)=Nc3c2c(C)nn3C(=O)c2ccncc2)cc1 (stereo unspecified)
unit.spec: %
growth inhibition: -33.2
--
molecule: NC(C(=O)O)C1CCCC1 (stereo unspecified)
unit.spec: %
growth inhibition: -5.1
--
molecule: CC(=O)Nc1cc(C)ccn1
unit.spec: %
growth inhibition: 0.6
--
molecule: COc1ccc(OC)c(/C=C/c2ccc(NC(=O)Nc3ccccc3Cl)cc2)c1
unit.spec: %
growth inhibition: 2.3
--
molecule: CSC(=Nc1nnc(-c2ccc([N+](=O)[O-])cc2)s1)SC
unit.spec: %
growth inhibition: 1.2
--
molecule: Cc1ccc(S(=O)c2ccccc2[N+](=O)[O-])cc1 (stereo unspecified)
unit.spec: %
growth inhibition: 9.45
--
molecule: COC(=O)C1(O)CC(=O)CCC1c1ccc(OC)cc1 (stereo unspecified)
unit.spec: %
growth inhibition: -1.35
--
molecule: CCOc1c(N=Nc2ccccc2OC)c(-c2ccccc2)nn1C(=S)S
unit.spec: %
growth inhibition: 42
--
molecule: N#CCc1nc(-c2ccccc2)n[nH]1
unit.spec: %
growth inhibition: 4.55
--
molecule: Cc1cc(=O)oc2c1ccc1occc(=O)c12
unit.spec: %
growth inhibition: 10.4
--
molecule: O=[N+]([O-])c1cc(Br)ccc1N1CCCC1
unit.spec: %
growth inhibition: 4.2
--
molecule: Cc1cc(Sc2ccc(Cl)cc2)nc(Sc2ccc(Cl)cc2)c1C#N
unit.spec: %
growth inhibition: -30.5
--
molecule: CSc1ccc(NC(=O)Nc2ccccc2C(F)(F)F)cc1
unit.spec: %
growth inhibition: -3.25
--
molecule: CCCCCCCCCCCCOc1ccc(C(C)(C)C)cc1
unit.spec: %
growth inhibition: -12.8
--
molecule: O=C(O)c1ccc(-c2ccc(O)cc2)cc1
unit.spec: %
growth inhibition: 5.85
--
molecule: NCCNCC(O)CO (stereo unspecified)
unit.spec: %
growth inhibition: -18.6
--
molecule: COc1ccc(N)c(C(=O)CCNC(C)=O)c1
unit.spec: %
growth inhibition: -9.7

###

Catalogue of molecules with associated growth inhibition
experiment: NCI Yeast Anticancer Drug Screen. Data for the bub3 strain (AID 167); conditions: S. cerevisiae bub3 mutant strain, at 50.0 µM, stronger effect = higher value
This is part of a sample that, as a whole, favours compounds with a hit. Of some 79,000 tested, about 15% had one in any assay.
property.measured: growth inhibition (%)

molecule: CNC(=O)c1ccc[n+](CC(=O)NCc2ccccc2)c1
property.measured: growth inhibition
readout.value: -1.5

molecule: COc1nc2c(c(O)c(C)c(=O)n2OC2OC(COC(C)=O)C(OC(C)=O)C(OC(C)=O)C2OC(C)=O)c(=O)n1C (stereo unspecified)
property.measured: growth inhibition
readout.value: 0.45

molecule: NC(CCCCNC(=O)OCc1ccccc1)C(=O)OCc1ccccc1 (stereo unspecified)
property.measured: growth inhibition
readout.value: -0.75

molecule: CCOc1c(C(=O)O)cnc2ccccc12
property.measured: growth inhibition
readout.value: -19.6

molecule: Cc1ccc(S(=O)(=O)Oc2cc(-c3ccccc3)nc3ccccc23)cc1
property.measured: growth inhibition
readout.value: 27.6

molecule: COC(=O)Cc1[nH]c(C(=O)OC)c(C)c1C(=O)OC
property.measured: growth inhibition
readout.value: -6.95
